Values compiled from patent US7135457.

- measuredTarget: T1, human PEPT1 (hPEPT1) receptor domain, amino acid residues 391-571, His-tag fusion protein (human, UniProt P46059 391-571)
- T1 construct: Expressed as His-tag fusion, purified under denaturing conditions, coated on plates; not shown: poly-histidine tag (pET His-tag) at the NH2-terminal end
- T1 sequence: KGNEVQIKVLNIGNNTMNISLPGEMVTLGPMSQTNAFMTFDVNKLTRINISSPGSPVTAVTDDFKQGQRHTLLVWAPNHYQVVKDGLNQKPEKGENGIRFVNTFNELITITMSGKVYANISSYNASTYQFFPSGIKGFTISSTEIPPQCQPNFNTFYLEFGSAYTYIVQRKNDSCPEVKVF
- experiment: phage ELISA, OD on hPEPT1 over OD on BSA
Below is a list of entries, each paired with its recorded PEPT1/BSA value.

- binder: "SQVDSFRNSFRWYEPSRALCHGCGKRDTSTTRIHNSPSDSYPTR (pIII and flanks not included) [phage PAX17]"
  unitString: "ratio"
  PEPT1/BSA: 5
- binder: "SSKVSSPRDPTVPRKGGNVDYGCGHRSSARMPTSALSSITKCYT (pIII and flanks not included) [phage PAX38]"
  unitString: "ratio"
  PEPT1/BSA: 5
- binder: "SSADAEKCAGSLLWWGRQNNSGCGSPTKKHLKHRNRSQTSSSSH (pIII and flanks not included) [phage P90]"
  unitString: "ratio"
  PEPT1/BSA: 9
